sequences and their reported switch fluorescence ratio
# Test system: ATP;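 note: ATP exposure 15 min at 22 °C before imaging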
# methodSummary: switch fluorescence ratio, 500 uM ATP over buffer (Cy3 cluster intensity, sum of 5 cycles each) (fold (ratio)); higher = stronger signal-on switching upon ATP binding; sequences stand for … in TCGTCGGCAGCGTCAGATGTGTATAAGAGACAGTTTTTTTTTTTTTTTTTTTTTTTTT…TC
# testContext: aptamer strand: ATP DNA aptamer (quencher-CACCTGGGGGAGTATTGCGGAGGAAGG + anchor), 100 nM annealed; ATP concentration: 500 uM

1. GGGCGACGGC: 1.04

Give its switch fluorescence ratio value. Item: GTTGTAGTTA
1.01

Give its switch fluorescence ratio value. Item: TGGGATGTTC
0.989

Give its switch fluorescence ratio value. Item: GTTGTAGCGG
1

Give its switch fluorescence ratio value. Item: ATAAGAAACG
0.946

Give its switch fluorescence ratio value. Item: TTTTAGGTAG
0.99

Give its switch fluorescence ratio value. Item: CAGTTAGTAC
1.1

Give its switch fluorescence ratio value. Item: ATGGGGTGGT
0.993

Give its switch fluorescence ratio value. Item: GCCTATTTTG
0.962

Give its switch fluorescence ratio value. Item: TGTAGAAAGG
1.03

Give its switch fluorescence ratio value. Item: CTCAGTTTCT
1.02

Give its switch fluorescence ratio value. Item: GGAAAGACCG
1

----------
sequences and their reported switch fluorescence ratio
# System: ATP;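 note: ATP exposure 15 min at 22 °C before imaging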
# methodSummary: switch fluorescence ratio, 500 uM ATP over buffer (Cy3 cluster intensity, sum of 5 cycles each) (fold (ratio)); higher = stronger signal-on switching upon ATP binding; sequences stand for … in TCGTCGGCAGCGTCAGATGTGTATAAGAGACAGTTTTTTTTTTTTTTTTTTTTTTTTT…TC
# testContext: aptamer strand: ATP DNA aptamer (quencher-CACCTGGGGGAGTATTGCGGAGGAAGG + anchor), 100 nM annealed; ATP concentration: 500 uM
Lab note: jot the number down without any unit.

Example entries and their recorded answers appear below.
1) TGGGGTTTTG: 0.979
2) GGGGTAGGGT: 0.997
3) CGTCGCTTTT: 1.02
4) GTGTAAGTGT: 0.982

Give its switch fluorescence ratio value. Item: GTTTTTCTTC
0.992

Give its switch fluorescence ratio value. Item: CTTAAAAAGG
0.989

Give its switch fluorescence ratio value. Item: TTGTTTTGTG
0.978

Give its switch fluorescence ratio value. Item: GTTTGTGAAT
0.981

Give its switch fluorescence ratio value. Item: CTTGTGTGTT
0.993

Give its switch fluorescence ratio value. Item: GACTAGTTGG
0.983

Give its switch fluorescence ratio value. Item: GGTTTGCGGG
1.01

Give its switch fluorescence ratio value. Item: TTTATGGGTG
1.01

----------
# Tested on: ATP;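 note: ATP exposure 15 min at 22 °C before imaging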
# methodSummary: switch fluorescence ratio, 500 uM ATP over buffer (Cy3 cluster intensity, sum of 5 cycles each) (fold (ratio)); higher = stronger signal-on switching upon ATP binding; sequences stand for … in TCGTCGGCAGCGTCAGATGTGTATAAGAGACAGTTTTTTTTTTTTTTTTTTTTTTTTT…TC
# testContext: aptamer strand: ATP DNA aptamer (quencher-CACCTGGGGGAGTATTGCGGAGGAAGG + anchor), 100 nM annealed; ATP concentration: 500 uM
measuredEndpoint: switch fluorescence ratio
Lab note: jot the number down without any unit.

Example entries and their recorded answers appear below.
1. TCTATGCTTA: 1.01
2. GGTAAGGGCC: 1.01
3. TGGGTTCGGT: 0.995
4. TAGGTAAAGT: 0.981

Give its switch fluorescence ratio value. Item: GGGAAAGGAA
0.989
